Below, each entry is listed with its recorded pIC50.
Test: Binding affinity to Hsp90 after 4 hrs by GM-FITC based fluorescence polarization assay
reported metric: pIC50

# test smiles, experimental result
measured = [
    ("O=C1c2ccccc2C(=O)c2c(-c3ccncc3)noc21", 6.41),
    ("Cl.O=C1c2ccncc2C(=O)c2c(-c3ccc(OCCN4CCOCC4)cc3)noc21", 8.47),
    ("O=C1c2ccccc2C(=O)c2c(-c3ccc(F)cc3)noc21", 3.7),
    ("COc1ccccc1-c1noc2c1C(=O)c1ccccc1C2=O", 3.7),
    ("O=C1c2ccccc2C(=O)c2c(-c3ccc[n+](Cc4cnccn4)c3)noc21.[Br-]", 6.29),
    ("COc1cccc2c1C(=O)c1c(-c3cc[n+](Cc4ccccc4)cc3)noc1C2=O.[Br-]", 6.47),
    ("Cl.O=C1c2ccccc2C(=O)c2c(-c3ccc(OCCN4CCOCC4)cc3)noc21", 5.92),
    ("O=C1c2ccccc2C(=O)c2c(-c3ccc[n+](Cc4ccccc4)c3)noc21.[Br-]", 6.11),
    ("O=C1c2ccccc2C(=O)c2c(-c3ccccn3)noc21", 5.97),
    ("O=C1c2ccccc2C(=O)c2c(-c3cc[n+](Cc4cnccn4)cc3)noc21.[Br-]", 6.17),
]
